TARGET_DESC: T1, recombinant human activated Factor VII (FVIIa) (human, UniProt P08709 61-212; P08709 213-466, ten glutamate residues of the Gla domain may be gamma-carboxylated)
T1 construct: chains tethered by a disulfide bond; also called Factor VIIa; rFVIIa
T1 sequence 1: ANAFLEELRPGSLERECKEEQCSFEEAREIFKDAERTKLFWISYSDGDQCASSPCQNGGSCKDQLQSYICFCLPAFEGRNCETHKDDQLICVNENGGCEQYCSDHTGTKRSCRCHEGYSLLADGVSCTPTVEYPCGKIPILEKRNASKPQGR
T1 sequence 2: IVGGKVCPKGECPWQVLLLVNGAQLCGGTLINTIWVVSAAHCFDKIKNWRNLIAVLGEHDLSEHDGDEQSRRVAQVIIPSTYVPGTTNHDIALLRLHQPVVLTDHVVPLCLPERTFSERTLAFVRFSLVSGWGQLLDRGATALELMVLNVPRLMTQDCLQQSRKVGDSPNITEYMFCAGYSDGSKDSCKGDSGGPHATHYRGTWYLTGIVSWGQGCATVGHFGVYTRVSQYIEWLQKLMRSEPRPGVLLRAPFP
ASSAY_OVERVIEW: BLI (Fortebio)
pKd: −log10 of the molar value.
Binary call on pKd: true (1) from 8 upward, false (0) beneath that.

>>> class_assignment("VH SEQ ID NO 530 / VL SEQ ID NO 478 (antibody, IgG4, V domains shown, humanized 11F2; IgG4 S228P/kappa) VH: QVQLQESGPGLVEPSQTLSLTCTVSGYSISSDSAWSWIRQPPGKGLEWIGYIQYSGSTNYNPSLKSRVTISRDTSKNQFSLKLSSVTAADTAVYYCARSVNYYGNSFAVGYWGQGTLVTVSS VL: EIVLTQSPATLSLSPGERATLSCRASQGVSDYLHWYQQKPGQAPRLLIKYASQPATGIPARFSGSGSGTDFTLTISSLEPEDFAVYYCQQGHSFPLTFGQGTKLEIK")
"true (1)"

Does VH SEQ ID NO 554 / VL SEQ ID NO 478 (antibody, IgG4, V domains shown, humanized 11F2; IgG4 S228P/kappa) VH: QVQLQESGPGLVKPSDTLSLTCAVSGYSISSDSAWSWIRQFPGKGLEWIGYIQYSGSTNYNPSLKSRVTMSVDTSKNQFSLKLSSVTALDTAVYYCARSVNYYGNSFAVGPWGQGTLVTVSS VL: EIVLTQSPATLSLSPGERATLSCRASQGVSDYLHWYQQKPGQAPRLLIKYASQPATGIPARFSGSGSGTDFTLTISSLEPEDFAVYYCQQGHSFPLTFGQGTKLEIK have a reported pKd of at least 8? false (0)

# bool: pKd of VH SEQ ID NO 570 / VL SEQ ID NO 334 (antibody, IgG4, V domains shown, humanized 11F2; IgG4 S228P/kappa) VH: QVQLQESGPGLVKPSDTLSLTCAVSGYSISSDSAWSWIRQPPGKGLEWIGYIQYSGSTNYNPSLKSRVTMSRDTSKNQFSLKLSSVTAADTAVYYCARSVNYYGNSFAVGPWGQGTLVTVSS VL: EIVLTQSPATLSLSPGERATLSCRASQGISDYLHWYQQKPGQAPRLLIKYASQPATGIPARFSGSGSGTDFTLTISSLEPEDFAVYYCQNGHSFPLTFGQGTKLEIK >= 8 true (1)

Could you please find out whether VH SEQ ID NO 594 / VL SEQ ID NO 382 (antibody, IgG4, V domains shown, humanized 11F2; IgG4 S228P/kappa) VH: QVQLQESGPGLVKPSDTLSLTCAVSGYSISSDSAWSWIRQPPGKKLEWIGYIQYSGSTNYNPSLKSRVTMSVDTSKNQFSLKLSSVTALDTAVYYCARSVNYYGNSFAVGPWGQGTLVTVSS VL: EIVLTQSPATLSLSPGERATLSCRASQGLSDYLHWYQQKPGEAPRLLIKYASQPATGIPARFSGSGSGTDFTLTISSLEPEDFAVYYCQNGHSFPLTFGQGTKLEIK has pKd that meets 8 or exceeds it? false (0)

Cited source for all entries: patent US20220064329A1
